Test system: MDA-MB-468 breast
assay: NCI tumour cell line growth inhibition, 48 h; in the data active means GI50 below about 0.43 µM; inactive means the rest
Classes used: label 1 = active, label 0 = inactive

compound: Cc1cc(-c2ccco2)cc(C)c1/C=C/c1cncc(-c2nn[nH]n2)c1
labelValue: label 0
//
compound: CCOc1cc2c(cc1O)CC[C@@H]1[C@@H]2CC[C@]2(C)[C@@H](O)CC[C@@H]12
labelValue: label 0
//
compound: O=S(=O)(NCCCNc1nccc(-c2c(-c3cccc(F)c3)nc3occn23)n1)c1cccc2ccccc12
labelValue: label 0
//
compound: COc1cc(/C=N/Nc2ccnc3cc(Cl)ccc23)cc(OC)c1O
labelValue: label 0
//
compound: C=CC[PH+](c1ccccc1)c1ccccc1.C=CC[PH+](c1ccccc1)c1ccccc1.[Pt+2].[S-]c1ncccn1.[S-]c1ncccn1
labelValue: label 0
//
compound: COc1cc(OC)c(/C=C/C(=O)c2c(N)cc(OC)cc2OC)c(OC)c1
labelValue: label 1
//
compound: N#Cc1cccc(C2C3=C(COC3=O)N(CCO)c3cc4c(cc32)CCC4)c1 (stereo not given)
labelValue: label 1
//
compound: CCN(CC)C(=O)CCCCCn1c2ccccc2c2c3c(c4c5ccccc5[nH]c4c21)C(=O)N(O)C3=O
labelValue: label 0
//
compound: CCN(CCNc1ccc(C)c2sc3cc(Cl)ccc3c(=O)c12)CC(C)(C)O
labelValue: label 0
//
compound: CCc1ccc(C2=NN(c3ccc(S(C)(=O)=O)cc3)C(=O)CC2)cc1
labelValue: label 0

Data origin: PubChem BioAssay (NCI)
